Test System: T1, anti-CD28 Fab (SEQ ID NOs: 202, 203)
T1 construct: biotinylated and captured on neutravidin coated plates in the phage ELISA
T1 sequence (VH, as listed by the source, chain 1 of 2): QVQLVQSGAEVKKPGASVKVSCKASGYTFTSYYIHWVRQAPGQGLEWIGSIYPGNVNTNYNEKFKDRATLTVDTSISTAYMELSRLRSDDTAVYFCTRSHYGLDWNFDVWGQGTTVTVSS
T1 sequence (VL, as listed by the source, chain 2 of 2): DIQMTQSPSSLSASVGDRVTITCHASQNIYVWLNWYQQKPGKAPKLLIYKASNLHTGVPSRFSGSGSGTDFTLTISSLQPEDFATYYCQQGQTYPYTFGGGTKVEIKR
Method Description: phage binding ELISA; Fab wells pre-incubated with CD28 antigen (competitor);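 further: clonal phage supernatants added to wells preincubated with CD28 antigen in blocking buffer versus blocking buffer alone, washed, bound phage read by HRP-conjugated anti-M13 antibody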
Measurement Name: Anti-CD28 Fab signal in the presence of CD28

- Binder: "YCQGHSAEYMMKCL [Phage-364]"
  Test Result: 0.07
- Binder: "YCDGHSAAYIMKCL [Phage-342]"
  Test Result: 0.09
- Binder: "YCEGHRPEYMAKCL [Phage-348]"
  Test Result: 0.07
- Binder: "YCAGHLPQYIAKCL [Phage-313]"
  Test Result: 0.09
- Binder: "YCDGHSPAYMAKCL [Phage-350]"
  Test Result: 0.1
- Binder: "YCEGHAAEYMSKCL [Phage-339]"
  Test Result: 0.07
- Binder: "YCEGHLPEYMMKCL [Phage-329]"
  Test Result: 0.27
- Binder: "YCDGHTREYIDKCL [Phage-368]"
  Test Result: 0.08
- Binder: "YCDGHIDEYLQKCL [Phage-322]"
  Test Result: 0.06
- Binder: "YCDGHSLQYLGKCL [Phage-343]"
  Test Result: 0.09
- Binder: "YCDGHLSEYMFKCL [Phage-371]"
  Test Result: 0.1
- Binder: "YCDGHLGVYMAKCL [Phage-372]"
  Test Result: 0.07
- Binder: "YCAGHSPLYMLKCL [Phage-442]"
  Test Result: 0.1
- Binder: "YCEGHMSEYMAKCL [Phage-325]"
  Test Result: 0.11
- Binder: "YCEGHVAEYMLKCL [Phage-323]"
  Test Result: 0.05
- Binder: "YCDGHLAEYMVKCL [Phage-375]"
  Test Result: 0.08
- Binder: "YCDGHAIEYMAKCL [Phage-446]"
  Test Result: 0.08
- Binder: "YCAGHAEQYMAKCL [Phage-370]"
  Test Result: 0.08
- Binder: "YCEGHSPQYVQKCL [Phage-384]"
  Test Result: 0.06
- Binder: "YCDGHAWEYMTKCL [Phage-448]"
  Test Result: 0.35
- Binder: "YCEGHIPEYMAKCL [Phage-318]"
  Test Result: 0.06
- Binder: "YCDGHKAEYMEKCL [Phage-366]"
  Test Result: 0.09
- Binder: "YCDGHLKEYMAKCL [Phage-314]"
  Test Result: 0.07
- Binder: "YCEGHSAEYMQKCL [Phage-443]"
  Test Result: 0.29
- Binder: "YCDGHSAEYITKCL [Phage-380]"
  Test Result: 0.06
- Binder: "YCEGHLQEYMEKCL [Phage-317]"
  Test Result: 0.1
- Binder: "YCEGHSYEYMWKCL [Phage-328]"
  Test Result: 0.08
- Binder: "YCDGHLDEYMEKCL [Phage-386]"
  Test Result: 0.08
- Binder: "YCEGHLPEYMRKCL [Phage-349]"
  Test Result: 0.06
- Binder: "YCEGHSLEYMAKCL [Phage-327]"
  Test Result: 0.08
